Below, each entry is listed with its recorded TGI.
System: BT-549 breast
testSummary: NCI tumour cell line growth inhibition, 48 h

Study these solved cases before continuing.
Per the record, O=C([CH-]C(=O)c1ccccc1)c1ccccc1.[CH2-]C.[CH2-]C.[Tl+3] has TGI of > 100 µM

Per the record, C=C(C)C1CCC2(C)C1CCC1(C)C2CCC2C3(C)C4OC(OC4=O)C(C)(C)C3CCC21C (stereo not given) has TGI of > 100 µM

Others:
Per the record, COc1ccc(Nc2nc(N)c(C(=O)c3ccco3)s2)cc1 has TGI of > 100 µM

Per the record, FC(F)(Sc1ncccn1)c1nc2ccccc2o1 has TGI of > 100 µM

###

Tested on: TK-10 renal
testSummary: NCI tumour cell line growth inhibition, 48 h; in the data active = GI50 below about 0.43 µM; inactive = the rest
Classes to choose from: active, inactive

Prompt: Name the outcome recorded for COc1ccc(-c2nc3sccn3c2/C=C/C(=O)c2cc(OC)c(OC)c(OC)c2)cc1 in the assay.
Response: inactive

Others:
Prompt: Name the outcome recorded for c1ccc(-c2nc3ccccc3[nH]2)c(OCCCCCOc2ccccc2-c2nc3ccccc3[nH]2)c1 in the assay.
Response: inactive

###

Below, each entry is listed with its recorded GI50.
Test system: RPMI-8226 leukemia
testSummary: NCI tumour cell line growth inhibition, 48 h

Per the record, COc1ccc(C2=NOC3=c4ccccc4=CSC3=C2c2ccccc2)cc1 has GI50 of 25300 nM

Per the record, OCCN1CCCN(CCCN2c3ccccc3Sc3ccc(C(F)(F)F)cc32)CC1 has GI50 of 2210 nM

Per the record, COc1ccc(-c2nc3sccn3c2/C=C/C(=O)c2cc(OC)c(OC)c(OC)c2)cc1 has GI50 of 2240 nM

###

System: NCI/ADR-RES ovarian
testSummary: NCI tumour cell line growth inhibition, 48 h
Below, each entry is listed with its recorded TGI.

Study these solved cases before continuing.
Per the record, CC1=NN(c2cc(Cl)c(S(=O)(=O)O)cc2Cl)C2(C1)C(Cl)C(=O)N2c1nc2ccccc2s1 (stereo not given) has TGI of > 100 µM

Per the record, CN1CCN(Cc2ccc(C(=S)Nc3ccccc3)s2)CC1 has TGI of > 100 µM

Per the record, CCOC(=O)CCC(C(=O)OCC)n1nnc2cc(Nc3c(C)[n+]([O-])c4cc(Cl)ccc4[n+]3[O-])ccc21 (stereo not given) has TGI of > 100 µM

Per the record, c1ccc(-c2nc3ccccc3[nH]2)c(OCCCCCOc2ccccc2-c2nc3ccccc3[nH]2)c1 has TGI of 33.3 µM

Per the record, COc1cc(C(=O)Nc2ccc(-c3nc4ccccc4[nH]3)cc2)cc(OC)c1OC has TGI of 73.4 µM

Per the record, COC(=O)c1sc2c(Cl)c(Cl)sc2c1Cl has TGI of > 100 µM

Others:
Per the record, Cc1cc(C)c(C2=NO[C@@H]3[C@H]2C(=O)C=C2N(Cc4ccccc4)CCO[C@@]23O)c(C)c1 has TGI of > 100 µM

Per the record, C[N+](C)([O-])C12CC3CC(CC(C3)C1)C2 has TGI of > 100 µM

Per the record, CCOC(=O)NC(Nc1ccc(C(=O)O)cc1)(C(F)(F)F)C(F)(F)F has TGI of > 100 µM

Per the record, C/C(=C\C(=O)O)C(=O)N(C)c1ccccc1I has TGI of > 100 µM
